Hey, just so you know, these numbers are from the supplement of paper PMC11908140.

B1: library; numbered along this chain (parent)
chain: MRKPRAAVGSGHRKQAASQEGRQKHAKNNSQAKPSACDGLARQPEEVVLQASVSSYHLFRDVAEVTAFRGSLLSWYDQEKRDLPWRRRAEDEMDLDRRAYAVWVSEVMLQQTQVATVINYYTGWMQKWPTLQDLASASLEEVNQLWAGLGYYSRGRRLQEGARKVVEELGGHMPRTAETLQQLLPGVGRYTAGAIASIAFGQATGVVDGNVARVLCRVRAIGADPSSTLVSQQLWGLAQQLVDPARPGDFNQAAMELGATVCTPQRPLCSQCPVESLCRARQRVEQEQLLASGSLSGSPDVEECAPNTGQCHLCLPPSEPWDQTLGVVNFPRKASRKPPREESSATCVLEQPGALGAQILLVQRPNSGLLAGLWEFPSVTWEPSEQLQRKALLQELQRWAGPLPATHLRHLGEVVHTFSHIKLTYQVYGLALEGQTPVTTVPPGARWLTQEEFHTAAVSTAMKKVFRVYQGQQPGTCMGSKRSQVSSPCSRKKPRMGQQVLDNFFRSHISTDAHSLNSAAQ

Variants of: B1
Experiment: 8OG:A repair function score (normalized; synonymous = 0, nonsense = -1) (normalized log-likelihood score); higher = more repair activity (WT-like);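 further: cells sorted at 72 h after reporter transfection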
Conditions: with 8OG:A DNA repair reporter (GFP) in HEK-293 MUTYH KO cells
Provide the reported 8OG:A repair function score of each item.
The reply should be a number, written without any unit.

Task: What value of 8OG:A repair function score has been recorded for this entry: L325G
Result: -0.16

Task: What value of 8OG:A repair function score has been recorded for this entry: A162Q
Result: -0.953

Task: What value of 8OG:A repair function score has been recorded for this entry: E433A
Result: 0.0651

Task: What value of 8OG:A repair function score has been recorded for this entry: A203Q
Result: 0.0356

Task: What value of 8OG:A repair function score has been recorded for this entry: P442Q
Result: 0.213

Task: What value of 8OG:A repair function score has been recorded for this entry: Q470C
Result: -0.00083

Task: What value of 8OG:A repair function score has been recorded for this entry: S71H
Result: -0.0346

Task: What value of 8OG:A repair function score has been recorded for this entry: D322Y
Result: -0.0375

Task: What value of 8OG:A repair function score has been recorded for this entry: R69C
Result: -0.33

Task: What value of 8OG:A repair function score has been recorded for this entry: R42C
Result: 0.0324

Task: What value of 8OG:A repair function score has been recorded for this entry: P338L
Result: -0.061

Task: What value of 8OG:A repair function score has been recorded for this entry: I198T
Result: -0.36

Task: What value of 8OG:A repair function score has been recorded for this entry: V274A
Result: -0.219

Task: What value of 8OG:A repair function score has been recorded for this entry: I221H
Result: -0.866

Task: What value of 8OG:A repair function score has been recorded for this entry: A67F
Result: -0.0807

Task: What value of 8OG:A repair function score has been recorded for this entry: V48N
Result: 0.0431

Task: What value of 8OG:A repair function score has been recorded for this entry: R157Y
Result: -0.068

Task: What value of 8OG:A repair function score has been recorded for this entry: T176C
Result: -0.0512

Task: What value of 8OG:A repair function score has been recorded for this entry: R246F
Result: -0.68

Task: What value of 8OG:A repair function score has been recorded for this entry: Q113C
Result: -0.133

Task: What value of 8OG:A repair function score has been recorded for this entry: D96N
Result: -0.00561

Task: What value of 8OG:A repair function score has been recorded for this entry: S507H
Result: -0.084

Task: What value of 8OG:A repair function score has been recorded for this entry: V242M
Result: -0.625

Task: What value of 8OG:A repair function score has been recorded for this entry: V211I
Result: -0.0557

Task: What value of 8OG:A repair function score has been recorded for this entry: L325A
Result: -0.0759

Task: What value of 8OG:A repair function score has been recorded for this entry: S459G
Result: -0.212

Task: What value of 8OG:A repair function score has been recorded for this entry: L169K
Result: -0.189

Task: What value of 8OG:A repair function score has been recorded for this entry: V48S
Result: -0.0148

Task: What value of 8OG:A repair function score has been recorded for this entry: M255F
Result: -0.873

Task: What value of 8OG:A repair function score has been recorded for this entry: A162V
Result: -0.278

Task: What value of 8OG:A repair function score has been recorded for this entry: M93G
Result: -0.0185

Task: What value of 8OG:A repair function score has been recorded for this entry: E167D
Result: 0.018

Task: What value of 8OG:A repair function score has been recorded for this entry: T460L
Result: -0.235

Task: What value of 8OG:A repair function score has been recorded for this entry: S510T
Result: 0.00117

Task: What value of 8OG:A repair function score has been recorded for this entry: C269R
Result: -1.15

Task: What value of 8OG:A repair function score has been recorded for this entry: P244S
Result: -0.232

Task: What value of 8OG:A repair function score has been recorded for this entry: R364C
Result: -0.262

Task: What value of 8OG:A repair function score has been recorded for this entry: Q310S
Result: -0.0462

Task: What value of 8OG:A repair function score has been recorded for this entry: G297L
Result: -0.000773

Task: What value of 8OG:A repair function score has been recorded for this entry: L355H
Result: -0.0638

Task: What value of 8OG:A repair function score has been recorded for this entry: E160K
Result: -0.0797

Task: What value of 8OG:A repair function score has been recorded for this entry: S105M
Result: -0.981

Task: What value of 8OG:A repair function score has been recorded for this entry: L315T
Result: -0.0895

Task: What value of 8OG:A repair function score has been recorded for this entry: L325W
Result: -0.0969

Task: What value of 8OG:A repair function score has been recorded for this entry: A36E
Result: 0.00159

Task: What value of 8OG:A repair function score has been recorded for this entry: W103H
Result: -0.97

Task: What value of 8OG:A repair function score has been recorded for this entry: P247K
Result: -1.03

Task: What value of 8OG:A repair function score has been recorded for this entry: G471F
Result: -0.0055

Task: What value of 8OG:A repair function score has been recorded for this entry: T460F
Result: -0.157

Task: What value of 8OG:A repair function score has been recorded for this entry: E375Y
Result: -0.285

Task: What value of 8OG:A repair function score has been recorded for this entry: A196K
Result: -0.993

Task: What value of 8OG:A repair function score has been recorded for this entry: S292K
Result: -0.0316

Task: What value of 8OG:A repair function score has been recorded for this entry: V53S
Result: 0.00307

Task: What value of 8OG:A repair function score has been recorded for this entry: L289N
Result: -0.057

Task: What value of 8OG:A repair function score has been recorded for this entry: A345V
Result: 0.0157

Task: What value of 8OG:A repair function score has been recorded for this entry: C314F
Result: -0.764

Task: What value of 8OG:A repair function score has been recorded for this entry: T176K
Result: -0.0846

Task: What value of 8OG:A repair function score has been recorded for this entry: L501D
Result: 0.00991

Task: What value of 8OG:A repair function score has been recorded for this entry: G309K
Result: -0.0254

Task: What value of 8OG:A repair function score has been recorded for this entry: D94Q
Result: -0.215

Task: What value of 8OG:A repair function score has been recorded for this entry: L290N
Result: 0.00556

Task: What value of 8OG:A repair function score has been recorded for this entry: R219M
Result: -0.571

Task: What value of 8OG:A repair function score has been recorded for this entry: G475R
Result: 0.00413

Task: What value of 8OG:A repair function score has been recorded for this entry: G372T
Result: -0.157

Task: What value of 8OG:A repair function score has been recorded for this entry: V500Y
Result: -0.00833

Task: What value of 8OG:A repair function score has been recorded for this entry: C311D
Result: -0.559

Task: What value of 8OG:A repair function score has been recorded for this entry: P247S
Result: -0.584

Task: What value of 8OG:A repair function score has been recorded for this entry: M478F
Result: 0.0278

Task: What value of 8OG:A repair function score has been recorded for this entry: P338Q
Result: -0.00645

Task: What value of 8OG:A repair function score has been recorded for this entry: T460V
Result: -0.029

Task: What value of 8OG:A repair function score has been recorded for this entry: A6H
Result: -0.0145

Task: What value of 8OG:A repair function score has been recorded for this entry: V284I
Result: -0.0683

Task: What value of 8OG:A repair function score has been recorded for this entry: A192V
Result: -0.943

Task: What value of 8OG:A repair function score has been recorded for this entry: N366I
Result: -0.169

Task: What value of 8OG:A repair function score has been recorded for this entry: V348K
Result: -1.21

Task: What value of 8OG:A repair function score has been recorded for this entry: F505P
Result: 0.0167

Task: What value of 8OG:A repair function score has been recorded for this entry: V301I
Result: -0.0154

Task: What value of 8OG:A repair function score has been recorded for this entry: F453H
Result: -0.758

Task: What value of 8OG:A repair function score has been recorded for this entry: T228M
Result: 0.0193

Task: What value of 8OG:A repair function score has been recorded for this entry: A6L
Result: 0.01

Task: What value of 8OG:A repair function score has been recorded for this entry: A400E
Result: -0.727

Task: What value of 8OG:A repair function score has been recorded for this entry: A199V
Result: -0.155

Task: What value of 8OG:A repair function score has been recorded for this entry: Q181A
Result: -0.034

Task: What value of 8OG:A repair function score has been recorded for this entry: E385I
Result: 0.197

Task: What value of 8OG:A repair function score has been recorded for this entry: T116Q
Result: -0.21

Task: What value of 8OG:A repair function score has been recorded for this entry: A99R
Result: -1.8

Task: What value of 8OG:A repair function score has been recorded for this entry: D512H
Result: -0.0208

Task: What value of 8OG:A repair function score has been recorded for this entry: V379M
Result: -0.148

Task: What value of 8OG:A repair function score has been recorded for this entry: L183C
Result: -0.208

Task: What value of 8OG:A repair function score has been recorded for this entry: F453P
Result: -0.896

Task: What value of 8OG:A repair function score has been recorded for this entry: D208I
Result: -1.02
